- Tested on: NOMO1
- Protocol Text: cell viability relative to DMSO control; higher = less cytotoxic
- Condition Summary: RPMI 5 mM glucose + 10% FBS; 48 h; 0.19 µM
cell viability overview
Answer in %, number only, no unit symbol.

Worked examples follow.
Compound	Study Target	cell viability / %
COc1cc2c(Nc3ccc(Cl)c(Cl)c3F)ncnc2cc1OC[C@@H]1C[C@@H]2CN(C)C[C@@H]2C1	NOMO1	126
CCOC(=O)[C@H](CCc1ccccc1)N[C@@H](C)C(=O)N1CCC[C@H]1C(=O)O	NOMO1	105
O=C1Nc2ccc(Cl)cc2[C@@](C#CC2CC2)(C(F)(F)F)O1	NOMO1	80.8
CN1\C(=C(\O)C2=C(C=CS2)[S+]1([O-])=O)C(=O)NC3=CC=CC=N3	NOMO1	114

Query: Quick one: cell viability of [NH2][Pt]([NH2])([Cl])[Cl] ?
Result: 103

Query: Give the measured cell viability of COc1cc(Nc2ncc(F)c(Nc3ccc4c(n3)NC(=O)C(C)(C)O4)n2)cc(OC)c1OC .
Result: 126

Query: Which cell viability value belongs to CNC1[C@@H](O)C(O[C@@H]2C(O)C(O[C@H]3O[C@H]([C@@H](C)NC)CC[C@H]3N)[C@@H](N)C[C@H]2N)OC[C@]1(C)O (some centres undefined) ?
Result: 91.2

Query: Recorded cell viability of OCc1ccc(-c2nn(Cc3ccccc3)c3ccccc23)o1 , please.
Result: 96.4

Query: # lookup: cell viability of OC[C@H]1O[C@H]([C@@H](F)[C@@H]1O)N2\C=C/C(=O)NC2=O
Result: 104
